Value source: paper PMC12250302

- Test system: E. coli ATCC 25922
- assay text: MIC and MBC testing, broth microdilution
- Type: cell-based, Escherichia coli
- cond: Escherichia coli, ATCC25922, read-out: MBC
parameter: MBC (µg/mL)
Answers are plain numbers, in µg/mL.

Answered examples (2):
[H]/N=C(\N)NN=C1CCCc2cc(OCc3ccc(F)cc3F)ccc21: 8
[H]/N=C(\N)NN=C1CCCc2cc(OCc3ccc(F)c(F)c3)ccc21: 16

Hey, can you go through the list below and give me MBC for every item?
1. [H]/N=C(\N)NN=C1CCCc2cc(OCc3cccc(C(F)(F)F)c3)ccc21
2. [H]/N=C(\N)NN=C1CCCc2cc(OCC=C(C)C)ccc21
3. [H]/N=C(\N)NN=C1CCCc2cc(OCc3cc(F)cc(F)c3)ccc21
4. [H]/N=C(\N)NN=C1CCCc2cc(OCc3cccc(-c4ccccc4)c3)ccc21

4
32
16
32

---

Answer each item with its documented MBC.
- System: K. pneumoniae ATCC 700603
- assay text: MIC and MBC testing, broth microdilution
- Format: cell-based, Klebsiella pneumoniae
- cond: Klebsiella pneumoniae, ATCC700603, read-out: MBC

[H]/N=C(\N)NN=C1CCCc2cc(OCc3cccc(C(F)(F)F)c3)ccc21: 32 µg/mL
[H]/N=C(\N)NN=C1CCCc2cc(OCCCCC)ccc21: 8 µg/mL
[H]/N=C(\N)NN=C1CCCc2cc(OCc3cc(F)ccc3F)ccc21: 32 µg/mL
[H]/N=C(\N)NN=C1CCCc2cc(OCc3ccc(Br)cc3)ccc21: 16 µg/mL
[H]/N=C(\N)NN=C1CCCc2cc(OCc3ccc(F)cc3)ccc21: 16 µg/mL
C[C@H]1COc2c(N3CCN(C)CC3)c(F)cc3c(=O)c(C(=O)O)cn1c23 [Levofloxacin, reference compound]: 4 µg/mL

Hey, can you go through the list below and give me MBC for every item?
1. [H]/N=C(\N)NN=C1CCCc2cc(OCc3ccc(F)cc3F)ccc21
2. [H]/N=C(\N)NN=C1CCCc2cc(OCc3ccccc3F)ccc21
3. [H]/N=C(\N)NN=C1CCCc2cc(OCCCC)ccc21
4. [H]/N=C(\N)NN=C1CCCc2cc(OCc3c(F)cccc3F)ccc21
5. [H]/N=C(\N)NN=C1CCCc2cc(OCc3cc(F)cc(F)c3)ccc21
6. [H]/N=C(\N)NN=C1CCCc2cc(OCCCCCC)ccc21
7. [H]/N=C(\N)NN=C1CCCc2cc(OCc3ccc(C(F)(F)F)cc3)ccc21

["16 µg/mL", "16 µg/mL", "> 32 µg/mL", "32 µg/mL", "16 µg/mL", "8 µg/mL", "32 µg/mL"]

Hey, can you go through the list below and give me MBC for every item?
1. [H]/N=C(\N)NN=C1CCCc2cc(OCc3ccc(F)c(F)c3)ccc21
2. [H]/N=C(\N)NN=C1CCCc2cc(OCCCCCCC)ccc21
3. [H]/N=C(\N)NN=C1CCCc2cc(OCc3cccc(F)c3)ccc21
4. [H]/N=C(\N)NN=C1CCCc2cc(OCc3ccccc3Br)ccc21
5. [H]/N=C(\N)NN=C1CCCc2cc(OCc3cccc(Br)c3)ccc21
6. [H]/N=C(\N)NN=C1CCCc2cc(OCC=C(C)C)ccc21
7. [H]/N=C(\N)NN=C1CCCc2cc(OCc3ccc(F)c(Cl)c3)ccc21

32 µg/mL
32 µg/mL
16 µg/mL
32 µg/mL
8 µg/mL
> 32 µg/mL
32 µg/mL
